Reported pIC50 values follow for various binders
- tested_target: T1, His-tagged PCSK9Δhelix (human, UniProt Q8NBP7 31-152; Q8NBP7 168-692)
- T1 construct: Human PCSK9 M1-Q692 with an engineered TEV site, cut by TEV protease; new N-terminus of the catalytic domain is S-A168; also called His-PCSK9Δhelix; not shown: His tag
- T1 sequence (Q8NBP7 31-152, stated change not applied, chain 1 of 2): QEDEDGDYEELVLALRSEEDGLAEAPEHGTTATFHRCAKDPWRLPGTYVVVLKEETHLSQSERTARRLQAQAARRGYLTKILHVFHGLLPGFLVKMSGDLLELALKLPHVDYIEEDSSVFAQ
- T1 sequence (Q8NBP7 other isoform, or with tags, fused parts or gaps mutant, chain 2 of 2): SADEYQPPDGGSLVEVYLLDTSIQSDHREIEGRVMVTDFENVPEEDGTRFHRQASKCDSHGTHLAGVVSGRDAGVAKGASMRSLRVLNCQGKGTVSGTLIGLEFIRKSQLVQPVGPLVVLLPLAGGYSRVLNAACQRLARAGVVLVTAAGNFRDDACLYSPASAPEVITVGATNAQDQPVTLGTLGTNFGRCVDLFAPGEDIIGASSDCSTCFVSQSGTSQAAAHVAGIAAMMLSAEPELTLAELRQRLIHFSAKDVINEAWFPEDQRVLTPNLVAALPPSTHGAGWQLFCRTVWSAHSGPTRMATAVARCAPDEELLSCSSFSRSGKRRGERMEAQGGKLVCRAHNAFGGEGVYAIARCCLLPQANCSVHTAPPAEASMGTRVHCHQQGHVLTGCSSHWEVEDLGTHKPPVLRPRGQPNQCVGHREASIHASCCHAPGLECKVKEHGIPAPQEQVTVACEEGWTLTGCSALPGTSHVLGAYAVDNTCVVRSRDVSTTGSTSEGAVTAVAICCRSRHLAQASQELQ
- test_summary: TR-FRET competition (PCSK9Δhelix/Ab20 assay); competitor Ab20
Bridge positions count the residues as written; N and C are the ends.
Quick note: pIC50 means taking -log10 of the concentration in moles per liter.

Consider the worked cases shown below.
{"binder": "H-WCLWNLKRIGSQCWF-OH (disulfide 2-13; SMILES CC[C@H](C)[C@@H]1NC(=O)[C@H](CCCNC(=N)N)NC(=O)[C@H](CCCCN)NC(=O)[C@H](CC(C)C)NC(=O)[C@H](CC(N)=O)NC(=O)[C@H](Cc2c[nH]c3ccccc23)NC(=O)[C@H](CC(C)C)NC(=O)[C@@H](NC(=O)[C@@H](N)Cc2c[nH]c3ccccc23)CSSC[C@@H](C(=O)N[C@@H](Cc2c[nH]c3ccccc23)C(=O)N[C@@H](Cc2ccccc2)C(=O)O)NC(=O)[C@H](CCC(N)=O)NC(=O)[C@H](CO)NC(=O)CNC1=O) [Compound 66 (WCLWNLKRIGSQCWF)]", "readout_value": 4.92}
{"binder": "Ac-GSGCWNLKRIGSQGCW-NH2 (disulfide 4-15; SMILES CC[C@H](C)[C@@H]1NC(=O)[C@H](CCCNC(=N)N)NC(=O)[C@H](CCCCN)NC(=O)[C@H](CC(C)C)NC(=O)[C@H](CC(N)=O)NC(=O)[C@H](Cc2c[nH]c3ccccc23)NC(=O)[C@@H](NC(=O)CNC(=O)[C@H](CO)NC(=O)CNC(C)=O)CSSC[C@@H](C(=O)N[C@@H](Cc2c[nH]c3ccccc23)C(N)=O)NC(=O)CNC(=O)[C@H](CCC(N)=O)NC(=O)[C@H](CO)NC(=O)CNC1=O) [Compound 40 (Ac-GSG-CWNLKRIGSQGCW-NH2)]", "readout_value": 5.62}
{"binder": "Ac-CFIPWNLQRIGLLC-NH2 (disulfide 1-14; SMILES CC[C@H](C)[C@@H]1NC(=O)[C@H](CCCNC(=N)N)NC(=O)[C@H](CCC(N)=O)NC(=O)[C@H](CC(C)C)NC(=O)[C@H](CC(N)=O)NC(=O)[C@H](Cc2c[nH]c3ccccc23)NC(=O)[C@@H]2CCCN2C(=O)[C@H]([C@@H](C)CC)NC(=O)[C@H](Cc2ccccc2)NC(=O)[C@@H](NC(C)=O)CSSC[C@@H](C(N)=O)NC(=O)[C@H](CC(C)C)NC(=O)[C@H](CC(C)C)NC(=O)CNC1=O) [Compound 31 (Ac-CFIPWNLQRIGLLC-NH2)]", "readout_value": 5.62}
{"binder": "Ac-CRLPWNLQRIGAPC-NH2 (disulfide 1-14; SMILES CC[C@H](C)[C@@H]1NC(=O)[C@H](CCCNC(=N)N)NC(=O)[C@H](CCC(N)=O)NC(=O)[C@H](CC(C)C)NC(=O)[C@H](CC(N)=O)NC(=O)[C@H](Cc2c[nH]c3ccccc23)NC(=O)[C@@H]2CCCN2C(=O)[C@H](CC(C)C)NC(=O)[C@H](CCCNC(=N)N)NC(=O)[C@@H](NC(C)=O)CSSC[C@@H](C(N)=O)NC(=O)[C@@H]2CCCN2C(=O)[C@H](C)NC(=O)CNC1=O) [Compound 69 (Ac-CRLPWNLQRIGAPC-NH2)]", "readout_value": 5.18}
{"binder": "Ac-CRLAWNLQRIGLPC-NH2 (disulfide 1-14; SMILES CC[C@H](C)[C@@H]1NC(=O)[C@H](CCCNC(=N)N)NC(=O)[C@H](CCC(N)=O)NC(=O)[C@H](CC(C)C)NC(=O)[C@H](CC(N)=O)NC(=O)[C@H](Cc2c[nH]c3ccccc23)NC(=O)[C@H](C)NC(=O)[C@H](CC(C)C)NC(=O)[C@H](CCCNC(=N)N)NC(=O)[C@@H](NC(C)=O)CSSC[C@@H](C(N)=O)NC(=O)[C@@H]2CCCN2C(=O)[C@H](CC(C)C)NC(=O)CNC1=O) [Compound 77 (Ac-CRLAWNLQRIGLPC-NH2)]", "readout_value": 5.22}
{"binder": "Ac-CRLPWNLKRIGLPC-NH2 (disulfide 1-14; SMILES CC[C@H](C)[C@@H]1NC(=O)[C@H](CCCNC(=N)N)NC(=O)[C@H](CCCCN)NC(=O)[C@H](CC(C)C)NC(=O)[C@H](CC(N)=O)NC(=O)[C@H](Cc2c[nH]c3ccccc23)NC(=O)[C@@H]2CCCN2C(=O)[C@H](CC(C)C)NC(=O)[C@H](CCCNC(=N)N)NC(=O)[C@@H](NC(C)=O)CSSC[C@@H](C(N)=O)NC(=O)[C@@H]2CCCN2C(=O)[C@H](CC(C)C)NC(=O)CNC1=O) [Compound 67 (Ac-CRLPWNLKRIGLPC-NH2)]", "readout_value": 6.16}
{"binder": "Ac-CRLPWNLQRAGLPC-NH2 (disulfide 1-14; SMILES CC(=O)N[C@H]1CSSC[C@@H](C(N)=O)NC(=O)[C@@H]2CCCN2C(=O)[C@H](CC(C)C)NC(=O)CNC(=O)[C@H](C)NC(=O)[C@H](CCCNC(=N)N)NC(=O)[C@H](CCC(N)=O)NC(=O)[C@H](CC(C)C)NC(=O)[C@H](CC(N)=O)NC(=O)[C@H](Cc2c[nH]c3ccccc23)NC(=O)[C@@H]2CCCN2C(=O)[C@H](CC(C)C)NC(=O)[C@H](CCCNC(=N)N)NC1=O) [Compound 71 (Ac-CRLPWNLQRAGLPC-NH2)]", "readout_value": 4.31}

Request: Requested field: pIC50. Item: Ac-CRLPWNLARIGLPC-NH2 (disulfide 1-14; SMILES CC[C@H](C)[C@@H]1NC(=O)[C@H](CCCNC(=N)N)NC(=O)[C@H](C)NC(=O)[C@H](CC(C)C)NC(=O)[C@H](CC(N)=O)NC(=O)[C@H](Cc2c[nH]c3ccccc23)NC(=O)[C@@H]2CCCN2C(=O)[C@H](CC(C)C)NC(=O)[C@H](CCCNC(=N)N)NC(=O)[C@@H](NC(C)=O)CSSC[C@@H](C(N)=O)NC(=O)[C@@H]2CCCN2C(=O)[C@H](CC(C)C)NC(=O)CNC1=O) [Compound 73 (Ac-CRLPWNLARIGLPC-NH2)]
Response: 6.04
